# measurement parameters: a range is the spread between reports
quantity name: melting point

Use these answered entries as a reference point.
[[record]]
molecule = "CCCCCCCCCCCCCl"
reported = "-9.3 to -9 °C"

[[record]]
molecule = "O=C(O)c1ccc([N+](=O)[O-])cc1Cl"
reported = "139 to 142 °C"

[[record]]
molecule = "NC(=O)c1cccc(Br)c1"
reported = "155 °C"

[[record]]
molecule = "CC(=O)c1ccncc1"
reported = "15 to 16 °C"

[[record]]
molecule = "CC(C)(C)OOC(=O)c1ccccc1"
reported = "7 to 8 °C"

[[record]]
molecule = "COc1ccc(C(C)=O)c(OC)c1"
reported = "40 to 41 °C"

[[record]]
molecule = "CC1=NNC(=O)C1"
reported = "221 to 222 °C"

[[record]]
molecule = "CCC(C)(O)CC"
reported = "-24 to -23.6 °C"

[[record]]
molecule = "O=C(CBr)c1ccccc1"
reported = "49 to 50.5 °C"

[[record]]
molecule = "CCCCS"
reported = "-116 °C"


What melting point value was documented for this molecule, CCCCCCC(O)CCCC (stereo not drawn) ?
-4 to -3.5 °C

What melting point value was documented for this molecule, `IC(I)I` ?
119 to 122 °C
